Origin of measurements: patent US20210332145A1

Overview of recorded Mean fluorescent intensity for various binders
Target: T1, BCMA on cells (293T cells transfected with BCMA; H929, MM.1S and U266 cell lines expressing BCMA) (human, UniProt Q02223 1-184)
T1 construct: H929, MM.1S and U266 carry the native protein; also called B-cell Maturation Antigen; TNFRSF17
T1 sequence: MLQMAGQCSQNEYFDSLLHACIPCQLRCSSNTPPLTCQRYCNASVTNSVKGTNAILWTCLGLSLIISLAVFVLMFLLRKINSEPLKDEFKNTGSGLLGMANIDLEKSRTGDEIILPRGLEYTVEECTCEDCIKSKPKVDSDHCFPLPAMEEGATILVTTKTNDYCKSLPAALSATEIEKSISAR
Test: flow cytometry, H929 cells; note: test concentration or dose not given here
The answer should be a number; do not append a unit.

Answered cases to consult:
binder	Mean fluorescent intensity
SCT-Aa01(h/h) (antibody, V domains shown, Full IgG format, chimeric: human IgG1 heavy chain constant region, human kappa light chain constant region) VH: DVQLQESGPGLVKPSQSLSLTCSVTGYSITSGYYWNWIRQFPGNKLEWMGYIRYDGSNNYNPSLKNRISITRDTSKNQFFLKLNSVTTEDTATYYCAPYDYDYAMDFWGQGTSVTVSS VL: DIQMTQSPASLSASVGETVTITCRASGNIHNYLAWYQQKQGKSPQLLVYNAKTLAHGVPSRFSGSGSGTQYSLKITSLQPEDFGTYYCQHFWSTPFTFGSGTKLEIK	411
SCT-Aa11(m/m) (antibody, V domains shown, Full IgG format: mouse IgG1 heavy chain constant region, mouse kappa light chain constant region) VH: QVQLQQSDAELVKPGASVKISCKVSGYTFTDHTIHWMKQRPEQGLEWIGYIFPRDGTTKFNEMFKGKATLTADKSSSTAYMELNSLTSEDSAVYFCARWDYEGFDYWGQGTTLTVSS VL: DIVMTQSPATLSVTPGDRVSLSCRASQSISDYLHWYQQKSHESPRLLIKYASQFISGIPSRFRGSGSGSDFTLSINSVEPEDVGVYYCQNGHSFPPTFGSGTKLEIK	1520

We now examine a further binder.
Q: // query Mean fluorescent intensity value for entry SCT-Aa04(h/h) (antibody, V domains shown, Full IgG format, chimeric: human IgG1 heavy chain constant region, human kappa light chain constant region) VH: EVKLLQSGGGLVQPGGSLKLSCAASGIDFSRYWMSWVRRAPGKGLEWIGEINPDSSTINYAPSLKDKFIISRDNAKNTLYLQMSKVRSEDTALYYCASFYYDYDRGAAMDYWGQGTSVTVSS VL: DIVMTQSQKFMSTSVGDRVSVTCKASQNVGTNVAWYQQKPGQSPKALIYSASYRYSGVPDRFTGSGSGTDFTLTISNVQSEDLAEYFCQQYNSYPYTFGGGTKLEIK
Ans: 623
